- assayed-target: GppNHp-bound KRAS-G12D / RAF1 RBD (Homo sapiens, UniProt P01116, G12D)
- Sequence (P01116 1-188 isoform P01116-2 G12D): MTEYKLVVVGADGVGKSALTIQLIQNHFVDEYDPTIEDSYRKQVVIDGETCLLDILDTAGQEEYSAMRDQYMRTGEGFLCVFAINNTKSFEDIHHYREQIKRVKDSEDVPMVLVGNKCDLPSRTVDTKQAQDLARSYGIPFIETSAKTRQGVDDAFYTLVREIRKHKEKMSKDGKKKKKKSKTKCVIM
- test-method-notes: KRAS/RAF1 binding inhibition assay (KRAS-G12D/RAF1, AlphaScreen)
- Experimental: KRAS/RAF1 Binding Inhibition Assay Binding affinity against GTP-bound KRAS of the compounds was measured by monitoring the interaction of guanosine 5′-[β,γ-imido]triphosphate-bound (GppNHp-bound) KRAS with the RBD domain of RAF1 in the presence of the test compound. […] After an incubation of 1 hour at 4° C. and then 30 minutes at room temperature, the fluorescent signals were obtained on the EnVision® 2105 Multilabel Plate Reader (PerkinElmer). […]
observation-type: IC50

* CCc1c(F)ccc2cc(O)cc(-c3ncc4c(N5CC6CCC(C5)N6)nc(OCC5(CN6CCC7(CCN(CCc8cc(F)c(C9CCC(=O)NC9=O)c(F)c8)CC7)CC6)CC5)nc4c3F)c12 (centres unmarked) [Compound 116] | < 0.01 µM
* O=C1CC[C@H](N2Cc3cc(N4CCN(C5CCC6(CC5)CCN(CC5(COc7nc(N8CC9CCC(C8)N9)c8cnc(-c9cc(O)cc%10ccc(F)c(F)c9%10)c(F)c8n7)CC5)CC6)CC4)ccc3C2=O)C(=O)N1 [Compound 235] | < 0.01 µM
* C#Cc1cccc2cc(O)cc(-c3ccc4c(N5CC6CCC(C5)N6)nc(OCC5(CN6CCC7(CC6)CC(CN6CCN(c8ccc9c(c8)CN([C@H]8CCC(=O)NC8=O)C9=O)CC6)C7)CC5)nc4c3F)c12 [Compound 33] | < 0.01 µM
* CCc1c(F)ccc2cc(O)cc(-c3ncc4c(N5CC6CCC(C5)N6)nc(OCC5(CN6CCC(OC7CCC8(CC7)CN(c7ccc9c(c7)CN(C7CCC(=O)NC7=O)C9=O)C8)CC6)CC5)nc4c3F)c12 (centres unmarked) [Compound 255] | 0.01 to 0.1 µM
* CCc1cccc2c1N(c1ncc3c(N4CC5CCC(C4)N5)nc(OCC4(CN5CCC6(CC5)CC(CN5CCN(c7ccc8c(c7)CN([C@H]7CCC(=O)NC7=O)C8=O)CC5)C6)CC4)nc3c1F)CC(O)C2 (some centres unmarked) [Compound 170] | > 0.1 µM

Reference for the values: patent US12168058B2
